test system: K562; assay: Cell proliferation assay (Alamar Blue); format: cell-based; conditions: Homo sapiens, 144 h; K562 tumor cell line; 6 days culture
readout.label: pIC50
// scale note: pIC50 = -log10(conc_M); give the bare number

Lab book: pIC50 of Cc1ccc(F)c(NC(=O)Nc2ccc(-c3cccc4[nH]nc(NC(=O)C[C@H](N)C(=O)N[C@@H](CCC(=O)N[C@@H](CCC(=O)N[C@@H](CCC(=O)N[C@@H](CCC(=O)O)C(=O)O)C(=O)O)C(=O)O)C(=O)O)c34)cc2)c1 noted as 4.53

* * *

tested on: SNU761; test: Cell proliferation assay (Alamar Blue); type: cell-based; settings: 144 h; SNU761 liver cancer cell line; 6 days culture
readout.label: IC50 (µM)

• Cc1ccc(F)c(NC(=O)Nc2ccc(-c3cccc4[nH]nc(NC(=O)C[C@H](N)C(=O)N[C@@H](CCC(=O)N[C@@H](CCC(=O)N[C@@H](CCC(=O)N[C@@H](CCC(=O)O)C(=O)O)C(=O)O)C(=O)O)C(=O)O)c34)cc2)c1 [Compound 2] = 19.5

1: Cc1ccc(F)c(NC(=O)Nc2ccc(-c3cccc4[nH]nc(NC(=O)C[C@H](N)C(=O)N[C@@H](CCC(=O)O)C(=O)O)c34)cc2)c1 [Compound 1]
2: Cc1ccc(F)c(NC(=O)Nc2ccc(-c3cccc4[nH]nc(NC(=O)C[C@H](N)C(=O)O)c34)cc2)c1 [Compound 10]
Please indicate which entry, 1 or 2 , has the lower recorded IC50 value. Indicate your choice by writing its label. 2
(2: 8.73 µM, 1: 12.6 µM)

* * *

tested on: SK-HEP-1; assay: Cell proliferation assay (Alamar Blue); type: cell-based; conditions: SK-HEP-1 liver cancer cell line; 6 days culture
readout.label: IC50

Lab book: IC50 of Cc1ccc(F)c(NC(=O)Nc2ccc(-c3cccc4[nH]nc(NC(=O)CCCCCNC(=O)C[C@H](N)C(=O)N[C@@H](CCC(=O)O)C(=O)O)c34)cc2)c1 noted as > 100 µM

Lab book: IC50 of Cc1ccc(F)c(NC(=O)Nc2ccc(-c3cccc4[nH]nc(NC(=O)CCCCCCCCCCCNC(=O)C[C@H](N)C(=O)N[C@@H](CCC(=O)O)C(=O)O)c34)cc2)c1 noted as > 100 µM

Lab book: IC50 of Cc1ccc(F)c(NC(=O)Nc2ccc(-c3cccc4[nH]nc(NC(=O)CCCCCCCCCCCNC(=O)C[C@H](N)C(=O)O)c34)cc2)c1 noted as > 100 µM

* * *

tested on: KASUMI-1; experiment: Cell proliferation assay (Alamar Blue); type: cell-based; conditions: KASUMI-1 (leukemia cells); 6 days culture
readout.label: IC50 (µM)
Quick note: give the figure in µM, leave out the unit.

- Cc1ccc(F)c(NC(=O)Nc2ccc(-c3cccc4[nH]nc(NC(=O)CCCCCCCCCCCNC(=O)C[C@H](N)C(=O)N[C@@H](CCC(=O)O)C(=O)O)c34)cc2)c1: 0.23

Lab book: IC50 of Cc1ccc(F)c(NC(=O)Nc2ccc(-c3cccc4[nH]nc(NC(=O)CCCCCNC(=O)C[C@H](N)C(=O)O)c34)cc2)c1 noted as 1.09

Lab book: IC50 of Cc1ccc(F)c(NC(=O)Nc2ccc(-c3cccc4[nH]nc(NC(=O)CCCCCCCCCCCNC(=O)C[C@H](N)C(=O)O)c34)cc2)c1 noted as 0.49

Lab book: IC50 of Cc1ccc(F)c(NC(=O)Nc2ccc(-c3cccc4[nH]nc(NC(=O)CCCCCCCCCCCNC(=O)C[C@H](N)C(=O)N[C@@H](CCC(=O)N[C@@H](CCC(=O)N[C@@H](CCC(=O)N[C@@H](CCC(=O)N[C@@H](CCC(=O)N[C@@H](CCC(=O)N[C@@H](CCC(=O)N[C@@H](CCC(=O)N[C@@H](CCC(=O)O)C(=O)O)C(=O)O)C(=O)O)C(=O)O)C(=O)O)C(=O)O)C(=O)O)C(=O)O)C(=O)O)c34)cc2)c1 noted as 0.87

Lab book: IC50 of Cc1ccc(F)c(NC(=O)Nc2ccc(-c3cccc4[nH]nc(NC(=O)CCCCCNC(=O)C[C@H](N)C(=O)N[C@@H](CCC(=O)O)C(=O)O)c34)cc2)c1 noted as 1.53

* * *

tested on: MDA-MB-435S; assay: Cell proliferation assay (Alamar Blue); format: cell-based; conditions: Homo sapiens, 144 h; MDA-MB-435S tumor cell line; 6 days culture
readout.label: IC50 (µM)

• Cc1ccc(F)c(NC(=O)Nc2ccc(-c3cccc4[nH]nc(NC(=O)C[C@H](N)C(=O)N[C@@H](CCC(=O)O)C(=O)O)c34)cc2)c1 = 10.5

a: Cc1ccc(F)c(NC(=O)Nc2ccc(-c3cccc4[nH]nc(NC(=O)C[C@H](N)C(=O)N[C@@H](CCC(=O)N[C@@H](CCC(=O)N[C@@H](CCC(=O)N[C@@H](CCC(=O)O)C(=O)O)C(=O)O)C(=O)O)C(=O)O)c34)cc2)c1
b: Cc1ccc(F)c(NC(=O)Nc2ccc(-c3cccc4[nH]nc(NC(=O)C[C@H](N)C(=O)O)c34)cc2)c1
Could you point out whether the larger IC50 belongs to a or to b ? Indicate your choice by writing its label. a
(a: 18.6 µM, b: 9.46 µM)

* * *

tested on: MDA-MB-231; test: Cell proliferation assay (Alamar Blue); type: cell-based; conditions: MDA-MB-231 tumor cell line; 6 days culture
pIC50: −log10 of the molar value.
We begin with a simple list: items and their reported pIC50.

- Cc1ccc(F)c(NC(=O)Nc2ccc(-c3cccc4[nH]nc(NC(=O)CCCCCNC(=O)C[C@H](N)C(=O)O)c34)cc2)c1: < 4.00

Query Cc1ccc(F)c(NC(=O)Nc2ccc(-c3cccc4[nH]nc(NC(=O)CCCCCCCCCCCNC(=O)C[C@H](N)C(=O)N[C@@H](CCC(=O)O)C(=O)O)c34)cc2)c1 on MDA-MB-231; pIC50 returned: < 4.00

Query Cc1ccc(F)c(NC(=O)Nc2ccc(-c3cccc4[nH]nc(NC(=O)CCCCCCCCCCCNC(=O)C[C@H](N)C(=O)N[C@@H](CCC(=O)N[C@@H](CCC(=O)N[C@@H](CCC(=O)N[C@@H](CCC(=O)N[C@@H](CCC(=O)N[C@@H](CCC(=O)N[C@@H](CCC(=O)N[C@@H](CCC(=O)N[C@@H](CCC(=O)O)C(=O)O)C(=O)O)C(=O)O)C(=O)O)C(=O)O)C(=O)O)C(=O)O)C(=O)O)C(=O)O)c34)cc2)c1 on MDA-MB-231; pIC50 returned: < 4.00

Query Cc1ccc(F)c(NC(=O)Nc2ccc(-c3cccc4[nH]nc(NC(=O)CCCCCNC(=O)C[C@H](N)C(=O)N[C@@H](CCC(=O)O)C(=O)O)c34)cc2)c1 on MDA-MB-231; pIC50 returned: < 4.00

Query Cc1ccc(F)c(NC(=O)Nc2ccc(-c3cccc4[nH]nc(NC(=O)CCCCCCCCCCCNC(=O)C[C@H](N)C(=O)O)c34)cc2)c1 on MDA-MB-231; pIC50 returned: 4.10

* * *

test system: NCI-H2170; assay: Cell proliferation assay (Alamar Blue); type: cell-based; details: Homo sapiens, 144 h; NCI-H2170 tumor cell line; 6 days culture
readout.label: IC50 (µM)

Sample records with IC50:
• Cc1ccc(F)c(NC(=O)Nc2ccc(-c3cccc4[nH]nc(NC(=O)C[C@H](N)C(=O)O)c34)cc2)c1 = 4.28
• Cc1ccc(F)c(NC(=O)Nc2ccc(-c3cccc4[nH]nc(NC(=O)C[C@H](N)C(=O)N[C@@H](CCC(=O)O)C(=O)O)c34)cc2)c1 = 5.32

a: Cc1ccc(F)c(NC(=O)Nc2ccc(-c3cccc4[nH]nc(N)c34)cc2)c1 [Linifanib, reference compound]
b: Cc1ccc(F)c(NC(=O)Nc2ccc(-c3cccc4[nH]nc(NC(=O)C[C@H](N)C(=O)N[C@@H](CCC(=O)N[C@@H](CCC(=O)N[C@@H](CCC(=O)N[C@@H](CCC(=O)O)C(=O)O)C(=O)O)C(=O)O)C(=O)O)c34)cc2)c1
c: Cc1ccc(F)c(NC(=O)Nc2ccc(-c3cccc4[nH]nc(NC(=O)CCCCCCCCCCCNC(=O)C[C@H](N)C(=O)N[C@@H](CCC(=O)N[C@@H](CCC(=O)N[C@@H](CCC(=O)N[C@@H](CCC(=O)O)C(=O)O)C(=O)O)C(=O)O)C(=O)O)c34)cc2)c1
Exam item: list the entries in increasing order of IC50. Sort and list the labels as requested. a, b, c
(a: 4 µM, b: 7.69 µM, c: 75.3 µM)

* * *

We begin with a simple list: items and their reported pIC50.
test system: T.T; assay: Cell proliferation assay (Alamar Blue); format: cell-based; details: Homo sapiens, TT, 144 h; T.T tumor cell line; 6 days culture
// scale note: pIC50 = -log10(conc_M); give the bare number

- Cc1ccc(F)c(NC(=O)Nc2ccc(-c3cccc4[nH]nc(NC(=O)C[C@H](N)C(=O)N[C@@H](CCC(=O)N[C@@H](CCC(=O)N[C@@H](CCC(=O)N[C@@H](CCC(=O)O)C(=O)O)C(=O)O)C(=O)O)C(=O)O)c34)cc2)c1: 4.77
- Cc1ccc(F)c(NC(=O)Nc2ccc(-c3cccc4[nH]nc(NC(=O)C[C@H](N)C(=O)O)c34)cc2)c1: 5.13

Continue with the compound presented below.
Lab book: pIC50 of Cc1ccc(F)c(NC(=O)Nc2ccc(-c3cccc4[nH]nc(NC(=O)C[C@H](N)C(=O)N[C@@H](CCC(=O)O)C(=O)O)c34)cc2)c1 noted as 5.03
